species on record: Rattus norvegicus; test: DrugMatrix - Regimen: Daily Repeat; format: toxicity, organism-based, Sprague-Dawley; set-up: regimen Daily Repeat, gender Male, age 6-8 weeks; conditions: in vivo, po, 0 mg/kg, 72 h, tissue Plasma, route oral GAVAGE, dose level Control, time 3 day, vehicle .5 % CMC

{"compound": "CCOc1cc(N)c(Cl)cc1C(=O)NCC1CN(Cc2ccc(F)cc2)CCO1 (stereo not given) [MOSAPRIDE]", "CREATININE": "0.18 mg/dL"}
{"compound": "O=C(O)CCc1nc(-c2ccccc2)c(-c2ccccc2)o1 [OXAPROZIN]", "CREATININE": "0.18 mg/dL"}
{"compound": "NCC(CC(=O)O)c1ccc(Cl)cc1 (stereo not given) [BACLOFEN]", "CREATININE": "0.18 mg/dL"}
{"compound": "COc1ccc(Cl)cc1C(=O)NCCc1ccc(S(=O)(=O)NC(=O)NC2CCCCC2)cc1 [GLYBURIDE]", "CREATININE": "0.55 mg/dL"}
{"compound": "Cc1cc2c(s1)Nc1ccccc1N=C2N1CCN(C)CC1 [OLANZAPINE]", "CREATININE": "0.14 mg/dL"}

====

organism: Rattus norvegicus; assay: DrugMatrix - Regimen: Daily Repeat; format: toxicity, organism-based, Sprague-Dawley; parameters: regimen Daily Repeat, gender Male, age 6-8 weeks; settings: in vivo, po, 0 mg/kg, 120 h, tissue Blood, route oral GAVAGE, dose level Control, time 5 day, vehicle .5 % CMC
test_readout: LYMPHOCYTE (%)

{"molecule": "CC(C)NCC(O)COc1ccc(CC(N)=O)cc1 (stereo not drawn) [ATENOLOL]", "quantitative_readout": 86.83}
{"molecule": "O=C1c2ccccc2C(=O)C1c1ccccc1 [PHENINDIONE]", "quantitative_readout": 82.57}
{"molecule": "Cc1cc2c(s1)Nc1ccccc1N=C2N1CCN(C)CC1 [OLANZAPINE]", "quantitative_readout": 90.5}

====

organism: Rattus norvegicus; experiment: DrugMatrix - Regimen: Daily Repeat; type: toxicity, organism-based, Sprague-Dawley; parameters: regimen Daily Repeat, gender Male, age 6-8 weeks; details: in vivo, iv, 0 mg/kg, 72 h, tissue Plasma, dose level Control, time 3 day, vehicle 100 % SALINE

{"chemical_string": "COC(=O)C[C@](O)(CCC(C)(C)O)C(=O)O[C@@H]1C(OC)=C[C@]23CCCN2CCc2cc4c(cc2[C@H]13)OCO4", "LACTATE DEHYDROGENASE": "125.33 u/L"}
{"chemical_string": "CC(=O)[C@]1(O)Cc2c(O)c3c(c(O)c2[C@@H](O[C@H]2C[C@H](N)[C@H](O)[C@H](C)O2)C1)C(=O)c1ccccc1C3=O", "LACTATE DEHYDROGENASE": "536.83 u/L"}
{"chemical_string": "CO[C@@]12[C@H](COC(N)=O)C3=C(C(=O)C(C)=C(N)C3=O)N1C[C@@H]1N[C@@H]12", "LACTATE DEHYDROGENASE": "110.33 u/L"}
{"chemical_string": "Cc1c(N)nc([C@H](CC(N)=O)NC[C@H](N)C(N)=O)nc1C(=O)N[C@H](C(=O)N[C@H](C)[C@@H](O)[C@H](C)C(=O)N[C@H](C(=O)NCCc1nc(-c2nc(C(=O)NCCC[S+](C)C)cs2)cs1)[C@@H](C)O)[C@@H](O[C@@H]1O[C@@H](CO)[C@@H](O)[C@H](O)[C@@H]1O[C@H]1O[C@H](CO)[C@@H](O)[C@H](OC(N)=O)[C@@H]1O)c1c[nH]cn1.[Br-]", "LACTATE DEHYDROGENASE": "269.33 u/L"}

====

Recorded POTASSIUM, one value per entry.
species on record: Rattus norvegicus; assay: DrugMatrix - Regimen: Daily Repeat; format: toxicity, organism-based, Sprague-Dawley; design: regimen Daily Repeat, gender Male, age 6-8 weeks; settings: in vivo, iv, 0 mg/kg, 72 h, tissue Plasma, dose level Control, time 3 day, vehicle 100 % SALINE

{"chemical_string": "Cc1c(N)nc([C@H](CC(N)=O)NC[C@H](N)C(N)=O)nc1C(=O)N[C@H](C(=O)N[C@H](C)[C@@H](O)[C@H](C)C(=O)N[C@H](C(=O)NCCc1nc(-c2nc(C(=O)NCCC[S+](C)C)cs2)cs1)[C@@H](C)O)[C@@H](O[C@@H]1O[C@@H](CO)[C@@H](O)[C@H](O)[C@@H]1O[C@H]1O[C@H](CO)[C@@H](O)[C@H](OC(N)=O)[C@@H]1O)c1c[nH]cn1.[Br-]", "POTASSIUM / MEQ/L": 5.85}
{"chemical_string": "COC(=O)C[C@](O)(CCC(C)(C)O)C(=O)O[C@@H]1C(OC)=C[C@]23CCCN2CCc2cc4c(cc2[C@H]13)OCO4", "POTASSIUM / MEQ/L": 6.68}
{"chemical_string": "CO[C@@]12[C@H](COC(N)=O)C3=C(C(=O)C(C)=C(N)C3=O)N1C[C@@H]1N[C@@H]12", "POTASSIUM / MEQ/L": 6.34}
{"chemical_string": "CC(=O)[C@]1(O)Cc2c(O)c3c(c(O)c2[C@@H](O[C@H]2C[C@H](N)[C@H](O)[C@H](C)O2)C1)C(=O)c1ccccc1C3=O", "POTASSIUM / MEQ/L": 6.23}

====

Recorded ABSOLUTE SEGMENTED NEUTROPHIL, one value per entry.
species on record: Rattus norvegicus; assay: DrugMatrix - Regimen: Daily Repeat; type: toxicity, organism-based, Sprague-Dawley; parameters: regimen Daily Repeat, gender Male, age 6-8 weeks; settings: in vivo, po, 1500 mg/kg, 72 h, tissue Blood, route oral GAVAGE, dose level High, time 3 day, vehicle .5 % CMC
test_readout: ABSOLUTE SEGMENTED NEUTROPHIL (CELLS/uL)

{"compound": "Cc1ccc(S(=O)(=O)NC(=O)NN2CCCCCC2)cc1 [TOLAZAMIDE]", "test_readout": "ABSOLUTE SEGMENTED NEUTROPHIL", "quantitative_readout": 801.33}
{"compound": "O=C(O)CCc1nc(-c2ccccc2)c(-c2ccccc2)o1", "test_readout": "ABSOLUTE SEGMENTED NEUTROPHIL", "quantitative_readout": 2140.33}
{"compound": "COc1cc(/C=C/C(=O)O)ccc1O [FERULATE]", "test_readout": "ABSOLUTE SEGMENTED NEUTROPHIL", "quantitative_readout": 1124.67}
{"compound": "CC[C@H]1OC(=O)[C@H](C)[C@@H](O[C@H]2C[C@@](C)(OC)[C@@H](O)[C@H](C)O2)[C@H](C)[C@@H](O[C@@H]2O[C@H](C)C[C@H](N(C)C)[C@H]2O)[C@](C)(O)C[C@@H](C)C(=O)[C@H](C)[C@@H](O)[C@]1(C)O", "test_readout": "ABSOLUTE SEGMENTED NEUTROPHIL", "quantitative_readout": 1229.67}

====

organism: Rattus norvegicus; experiment: DrugMatrix - Regimen: Daily Repeat; assay type: toxicity, organism-based, Sprague-Dawley; parameters: regimen Daily Repeat, gender Male, age 6-8 weeks; details: in vivo, po, 0 mg/kg, 120 h, tissue Plasma, route oral GAVAGE, dose level Control, time 5 day, vehicle .5 % CMC

{"compound": "CC(C)Cc1ccc([C@H](C)C(=O)O)cc1 [DEXIBUPROFEN]", "unit_of_measurement": "mg/dL", "PHOSPHORUS": 11.8}
{"compound": "NC(=O)NC(=O)Cc1ccccc1 [PHENACEMIDE]", "unit_of_measurement": "mg/dL", "PHOSPHORUS": 12}
{"compound": "NCC(CC(=O)O)c1ccc(Cl)cc1 (configuration not stated) [BACLOFEN]", "unit_of_measurement": "mg/dL", "PHOSPHORUS": 11.87}
{"compound": "CCOc1cc(N)c(Cl)cc1C(=O)NCC1CN(Cc2ccc(F)cc2)CCO1 (configuration not stated) [MOSAPRIDE]", "unit_of_measurement": "mg/dL", "PHOSPHORUS": 11.87}
{"compound": "CC(=O)Nc1ccc2c(c1)Cc1ccccc1-2 [2-ACETYLAMINOFLUORENE]", "unit_of_measurement": "mg/dL", "PHOSPHORUS": 11.87}
{"compound": "CCN1CCN(c2cc3c(cc2F)c(=O)c(C(=O)O)cn3C2CC2)CC1 [ENROFLOXACIN]", "unit_of_measurement": "mg/dL", "PHOSPHORUS": 10.05}
{"compound": "CN(C)CCC=C1c2ccccc2COc2ccccc21 [DOXEPIN]", "unit_of_measurement": "mg/dL", "PHOSPHORUS": 10.03}
{"compound": "COc1cc(NC(C)CCCN)c2ncccc2c1 (configuration not stated) [PRIMAQUINE]", "unit_of_measurement": "mg/dL", "PHOSPHORUS": 9.72}
{"compound": "CCN(CC)CCNC(=O)c1cc(Cl)c(N)cc1OC [METOCLOPRAMIDE]", "unit_of_measurement": "mg/dL", "PHOSPHORUS": 10.05}
{"compound": "COc1ccc(Cl)cc1C(=O)NCCc1ccc(S(=O)(=O)NC(=O)NC2CCCCC2)cc1 [GLYBURIDE]", "unit_of_measurement": "mg/dL", "PHOSPHORUS": 9.53}
{"compound": "CCN1C[C@]2(COC)[C@H](O)C[C@H](OC)[C@@]34[C@@H]5C[C@@]6(O)[C@H](OC(=O)c7ccccc7)[C@@H]5[C@@](OC(C)=O)([C@@H]([C@H](OC)[C@H]23)[C@@H]14)[C@@H](O)[C@@H]6OC [ACONITINE]", "unit_of_measurement": "mg/dL", "PHOSPHORUS": 12.07}
{"compound": "COc1cc(/C=C/C(=O)O)ccc1O [FERULATE]", "unit_of_measurement": "mg/dL", "PHOSPHORUS": 12.45}
